# reported Average OD (450 nm); entries follow
Molecular target: T1, human IL2Rβ Fc fusion protein (human, UniProt P14784 27-239)
T1 construct: also called ILR2β; CD122; not shown: Fc part
T1 sequence (looked up): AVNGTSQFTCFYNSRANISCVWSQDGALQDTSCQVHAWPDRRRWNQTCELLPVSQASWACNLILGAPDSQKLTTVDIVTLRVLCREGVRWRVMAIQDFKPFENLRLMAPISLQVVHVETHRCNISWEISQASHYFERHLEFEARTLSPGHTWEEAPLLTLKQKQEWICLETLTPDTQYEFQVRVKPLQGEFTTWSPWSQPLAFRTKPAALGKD
Experiment: ELISA on coated receptor-Fc, anti-His detection, single point 10 µM
Your answer should be a plain number; it is taken to be in OD450.

[[record]]
binder = "EP658, EP575 back-mutation clone (ligand, Mammalian-produced, His-tagged) APASSSTKKTQLQLEHLLLDLQMILNGINNYKNPLLTDMLTRKFYMPKKATELKHLQCLEEELKPLEEVLNLAQSKNFHLRPRGLISDISNIVLALKGSETTFMCEYADETATIVEFLNRWITFSQSIISTLT"
number = 0.87

[[record]]
binder = "EP671, EP575 back-mutation clone (ligand, Mammalian-produced, His-tagged) APASSSTKKTQLQLEHLLLDLQMILNGINNYKNPLLTDMLTRKFYMPKKATELKHLQCLEEELKPLEEVLNLAQSKNFHLRPKGLIGDINNIVLALKGSETTFMCEYADETATIVEFLNRWITFSQSIISTLT"
number = 0.09

[[record]]
binder = "EP661, EP575 back-mutation clone (ligand, Mammalian-produced, His-tagged) APASSSTKKTQLQLEHLLLDLQMILNGINNYKNPLLTDMLTRKFYMPKKATELKHLQCLEEELKPLEEVLNLAQSKNFHLRPKGLISNISNIVLALKGSETTFMCEYADETATIVEFLNRWITFSQSIISTLT"
number = 0.501

[[record]]
binder = "EP675, EP575 back-mutation clone (ligand, Mammalian-produced, His-tagged) APASSSTKKTQLQLEHLLLDLQMILNGINNYKNPLLTDMLTRKFYMPKKATELKHLQCLEEELKPLEEVLNLAQSKNFHLRNKGLISNISNIVLALKGSETTFMCEYADETATIVEFLNRWITFSQSIISTLT"
number = 0.082


Please turn your attention to the following entry.
Input EP668, EP575 back-mutation clone (ligand, Mammalian-produced, His-tagged) APASSSTKKTQLQLEHLLLDLQMILNGINNYKNPLLTDMLTRKFYMPKKATELKHLQCLEEELKPLEEVLNLAQSKNFHLRPRGLIGDISNIVLALKGSETTFMCEYADETATIVEFLNRWITFSQSIISTLT . Output Average OD (450 nm): 0.17
